Hello, the source for this data is ChEMBL document CHEMBL4842395, in case you need it.

Assay Remarks: Selectivity ratio of CC50 for MDCK cells to IC50 for Influenza A virus A/WSN/33(H1N1) infected in MDCK cells
Format: toxicity, cell-based
Condition Description: dog, read-out: Ratio CC50/IC50
Provide the recorded selectivity ratio for the entries that follow.

CC1(C)CC[C@]2(C(=O)NCCCc3cn(CC(CO)(Cn4cc(CCCNC(=O)[C@]56CCC(C)(C)C[C@H]5C5=CC[C@@H]7[C@@]8(C)CC[C@H](O)C(C)(C)[C@@H]8CC[C@@]7(C)[C@]5(C)CC6)nn4)Cn4cc(CCCNC(=O)[C@]56CCC(C)(C)C[C@H]5C5=CC[C@@H]7[C@@]8(C)CC[C@H](O)C(C)(C)[C@@H]8CC[C@@]7(C)[C@]5(C)CC6)nn4)nn3)CC[C@]3(C)C(=CC[C@@H]4[C@@]5(C)CC[C@H](O)C(C)(C)[C@@H]5CC[C@]43C)[C@@H]2C1 :: > 323
CC1(C)CC[C@]2(C(=O)NCCCc3cn(Cc4cc(Cn5cc(CCCNC(=O)[C@]67CCC(C)(C)C[C@H]6C6=CC[C@@H]8[C@@]9(C)CC[C@H](O)C(C)(C)[C@@H]9CC[C@@]8(C)[C@]6(C)CC7)nn5)cc(Cn5cc(CCCNC(=O)[C@]67CCC(C)(C)C[C@H]6C6=CC[C@@H]8[C@@]9(C)CC[C@H](O)C(C)(C)[C@@H]9CC[C@@]8(C)[C@]6(C)CC7)nn5)c4)nn3)CC[C@]3(C)C(=CC[C@@H]4[C@@]5(C)CC[C@H](O)C(C)(C)[C@@H]5CC[C@]43C)[C@@H]2C1 :: > 263
CC1(C)CC[C@]2(C(=O)NCc3cn(CC(CO)(Cn4cc(CNC(=O)[C@]56CCC(C)(C)C[C@H]5C5=CC[C@@H]7[C@@]8(C)CC[C@H](O)C(C)(C)[C@@H]8CC[C@@]7(C)[C@]5(C)CC6)nn4)Cn4cc(CNC(=O)[C@]56CCC(C)(C)C[C@H]5C5=CC[C@@H]7[C@@]8(C)CC[C@H](O)C(C)(C)[C@@H]8CC[C@@]7(C)[C@]5(C)CC6)nn4)nn3)CC[C@]3(C)C(=CC[C@@H]4[C@@]5(C)CC[C@H](O)C(C)(C)[C@@H]5CC[C@]43C)[C@@H]2C1 :: > 21.3

# next molecule below
# lookup: selectivity ratio of `CC1(C)CC[C@]2(C(=O)NCCc3cn(Cc4cc(Cn5cc(CCNC(=O)[C@]67CCC(C)(C)C[C@H]6C6=CC[C@@H]8[C@@]9(C)CC[C@H](O)C(C)(C)[C@@H]9CC[C@@]8(C)[C@]6(C)CC7)nn5)cc(Cn5cc(CCNC(=O)[C@]67CCC(C)(C)C[C@H]6C6=CC[C@@H]8[C@@]9(C)CC[C@H](O)C(C)(C)[C@@H]9CC[C@@]8(C)[C@]6(C)CC7)nn5)c4)nn3)CC[C@]3(C)C(=CC[C@@H]4[C@@]5(C)CC[C@H](O)C(C)(C)[C@@H]5CC[C@]43C)[C@@H]2C1`
> 3.17
